Each entry below carries its reported %Inh.
# Tested on: HPK1;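 further: KINOMEscan kinase panel screen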
# assay conditions: concentration: 1 μM, replicates: in singlicate; n = 1
The response must be a number in % with no trailing unit.

{"compound": "CC(C)NCC(Cc1ccccc1)NC(=O)c1cc(Br)c(-c2ccnc3[nH]ccc23)s1.Cl.Cl (stereo not drawn)", "%Inh [%]": 44}
{"compound": "CN(c1ccc(F)c(NC(=O)c2cccc(OC(C)(C)C#N)c2Cl)c1)c1ccc2nc(NC(=O)C3CC3)sc2n1", "%Inh [%]": 0}

We next turn to a different compound, shown below.
Ask | Looking for the measured %Inh of O=C(Nc1n[nH]c2nc(-c3cccc(O)c3)ccc12)C1CC1 , can you help?
Reply | 0
